System: Candida albicans
Assay: Antifungal activity against Candida albicans CMAH 0501 after 48 to 72 hrs by broth microdilution method
Assay type: functional
attribute.measured: MFC (µg/mL)
Give bare numbers, in µg/mL.

Solved entries (count: 3):
# compound, subject.of.test, MFC (µg/mL)
rows = [
    ("C[C@@H]1[C@H](O)[C@@H](C)/C=C/C=C/C=C/C=C/C=C/C=C/C=C/[C@H](O[C@@H]2O[C@H](C)[C@@H](O)[C@H](N)[C@@H]2O)C[C@@H]2O[C@](O)(C[C@@H](O)C[C@@H](O)[C@H](O)CC[C@@H](O)C[C@@H](O)CC(=O)O[C@H]1C)C[C@H](O)[C@H]2C(=O)O [AMPHOTERICIN B]", "Candida albicans", 1),
    ("COC(=O)[C@H](Cc1c[nH]c2ccccc12)NC(=O)c1cccc(C(=O)N[C@@H](Cc2c[nH]c3ccccc23)C(=O)OC)n1", "Candida albicans", 128),
    ("COC(=O)[C@H](Cc1c[nH]c2ccccc12)NC(=O)c1ccccn1", "Candida albicans", 4),
]

// next item, MFC requested
Name the reported MFC value associated with the compound CC1(C)S[C@@H]2[C@H](NC(=O)[C@H](N)c3ccccc3)C(=O)N2[C@H]1C(=O)O [AMPICILLIN]
128

---

Answer each item with its documented MIC.
Test system: Escherichia coli
Assay: Antimicrobial activity against Escherichia coli ATCC 25922 after 24 hrs by two fold dilution method
Type: functional
Settings: ATCC 25922, 24 h
One number for each entry, in µg/mL.

Example entries begin here.
# compound, MIC (µg/mL)
measured = [
    ("O=C(N[C@H](CO)[C@H](O)c1ccc([N+](=O)[O-])cc1)C(Cl)Cl [CHLORAMPHENICOL]", 2),
    ("CC1(C)S[C@@H]2[C@H](NC(=O)[C@H](N)c3ccccc3)C(=O)N2[C@H]1C(=O)O [AMPICILLIN]", 32),
    ("COC(=O)[C@H](Cc1c[nH]c2ccccc12)NC(=O)c1ccccn1", 64),
]

Continue with the next compound.
Query for Escherichia coli: what MIC does the record show for NC[C@H]1O[C@H](O[C@H]2[C@H](O)[C@@H](O[C@H]3O[C@H](CO)[C@@H](O)[C@H](N)[C@H]3O)[C@H](N)C[C@@H]2N)[C@H](O)[C@@H](O)[C@@H]1O [KANAMYCIN] ?
0.25

---

Assay: Toxicity in human erythrocytes assessed as haemolysis upto 500 ug/mL
Format: cell-based, Erythrocyte
Details: read-out: Activity
attribute.measured: hemolysis (%)
Answers are plain numbers, in %.

Given the compound `COC(=O)[C@H](Cc1c[nH]c2ccccc12)NC(=O)c1ccccn1` , what is its reported hemolysis?
2.52

---

Kindly supply the reported hemolysis values for the records listed here.
Experiment: Toxicity in human erythrocytes assessed as haemolysis upto 4000 ug/mL
Format: cell-based, Erythrocyte
Settings: read-out: Activity
Give bare numbers, in %.

# compound, value
data = [
    ("COC(=O)[C@H](Cc1c[nH]c2ccccc12)NC(=O)c1ccccn1", 6),
]

In the following, a different compound is considered.
Look up hemolysis: O=C(N[C@H](CO)[C@H](O)c1ccc([N+](=O)[O-])cc1)C(Cl)Cl [CHLORAMPHENICOL]
14

---

Experiment: Toxicity in human erythrocytes assessed as haemolysis upto 30 ug/mL
Type: cell-based, Erythrocyte
Conditions: read-out: Activity
attribute.measured: hemolysis (%)
Give bare numbers, in %.

# query: hemolysis of entry `COC(=O)[C@H](Cc1c[nH]c2ccccc12)NC(=O)c1ccccn1`
50

---

Kindly state MIC for each of the entries shown.
System: Pseudomonas aeruginosa
Test: Antimicrobial activity against Pseudomonas aeruginosa ATCC 27853 after 24 hrs by two fold dilution method
Type: functional
Conditions: ATCC 27853, 24 h
Give bare numbers, in µg/mL.

Study these solved cases before continuing.
# mol, value
measured = [
    ("NC[C@H]1O[C@H](O[C@H]2[C@H](O)[C@@H](O[C@H]3O[C@H](CO)[C@@H](O)[C@H](N)[C@H]3O)[C@H](N)C[C@@H]2N)[C@H](O)[C@@H](O)[C@@H]1O", 64),
    ("O=C(N[C@H](CO)[C@H](O)c1ccc([N+](=O)[O-])cc1)C(Cl)Cl", 32),
]

Could you now look at the following molecule, please?
So what's the measured MIC for this one? `COC(=O)[C@H](Cc1c[nH]c2ccccc12)NC(=O)c1ccccn1`
32
